From: patent US11981686B2

Quick reference: EC150 (the concentration of the compound showing a relative enzyme activity of 150%) of the listed items.
- measurement-target: UniProtKB Q8N6T7
- Sequence (Q8N6T7 whole entry, species assumed): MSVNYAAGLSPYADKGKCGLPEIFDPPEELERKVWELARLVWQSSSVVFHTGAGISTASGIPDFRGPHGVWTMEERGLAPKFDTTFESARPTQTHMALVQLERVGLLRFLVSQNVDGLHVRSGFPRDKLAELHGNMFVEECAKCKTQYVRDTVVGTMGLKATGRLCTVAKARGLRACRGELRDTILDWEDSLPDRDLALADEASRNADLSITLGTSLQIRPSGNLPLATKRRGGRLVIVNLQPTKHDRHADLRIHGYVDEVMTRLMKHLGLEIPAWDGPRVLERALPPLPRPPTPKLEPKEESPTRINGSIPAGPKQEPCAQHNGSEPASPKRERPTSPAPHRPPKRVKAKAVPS
- procedure-summary: Measurement of deacetylation activity (SIRT6, AlphaLISA, H3K9(Ac) peptide)
- Assay type: biochemical
- measurement-conditions: SIRT6 25 ng/mL, H3K9(Ac) biotin peptide 2 nM, NAD 10 μM, room temperature 30 minutes, duplicate
Give the value in μm but do not write μm after it.

Take a look at these entries with their results.
{"compound": "CC(C)(CO)NC(=O)Nc1nc2c(s1)[C@@H]1COC[C@H](C2)N1c1ncc(-c2cccc(OC(F)F)c2)o1", "measurement-target": "UniProtKB Q8N6T7", "observed-result": 1.2}
{"compound": "CNC(=O)Nc1nc2c(s1)[C@@H]1COC[C@H](C2)N1c1ncc(-c2cccc(OC)n2)o1", "measurement-target": "UniProtKB Q8N6T7", "observed-result": 1.1}
{"compound": "Cn1cnc(CNC(=O)Nc2nc3c(s2)CN(c2nc(C4CCC(F)(F)CC4)no2)CC3)n1", "measurement-target": "UniProtKB Q8N6T7", "observed-result": 2.4}

## Task Item CNC(=O)Nc1nc2c(s1)C1CN(C(=O)OC)CC(C2)N1c1cc(-c2ccc(F)cc2)on1 (stereo not shown) with UniProtKB Q8N6T7 - EC150 (the concentration of the compound showing a relative enzyme activity of 150%)?
## Result 0.49
